Here, each record is paired with measured IC50 (µg/ml) with constrains data.
- assay_target: HIV Env of isolate Q769.d22 (clade A) (HIV)
- experimental_details: cell-based or functional assay
Please reply with the bare figure in µg/mL and do not write the unit itself.

# binder, numeric_readout
data = [
    ("ePGDM13 (antibody, V domains shown) VH: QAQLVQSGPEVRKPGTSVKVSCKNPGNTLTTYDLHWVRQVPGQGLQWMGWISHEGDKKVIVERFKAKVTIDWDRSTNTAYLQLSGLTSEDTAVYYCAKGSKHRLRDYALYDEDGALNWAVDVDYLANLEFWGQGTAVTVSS VL: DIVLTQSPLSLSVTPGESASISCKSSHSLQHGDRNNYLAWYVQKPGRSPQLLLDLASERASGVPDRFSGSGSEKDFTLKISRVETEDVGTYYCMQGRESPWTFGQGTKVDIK", 0.002),
    ("PGDM1400 (antibody, V domains shown) VH: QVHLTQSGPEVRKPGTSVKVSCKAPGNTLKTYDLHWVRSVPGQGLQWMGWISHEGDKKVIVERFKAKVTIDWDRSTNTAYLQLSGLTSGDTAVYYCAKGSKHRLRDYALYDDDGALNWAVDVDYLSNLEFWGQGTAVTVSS VL: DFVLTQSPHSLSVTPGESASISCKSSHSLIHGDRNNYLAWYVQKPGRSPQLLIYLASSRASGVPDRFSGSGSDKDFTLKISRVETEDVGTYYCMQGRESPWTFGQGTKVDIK", 0.007),
]

Record summary for ePGDM5 (antibody, V domains shown) VH: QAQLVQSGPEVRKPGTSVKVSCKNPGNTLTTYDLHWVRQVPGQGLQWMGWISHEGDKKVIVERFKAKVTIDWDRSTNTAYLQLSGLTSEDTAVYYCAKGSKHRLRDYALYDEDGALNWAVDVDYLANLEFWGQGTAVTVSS VL: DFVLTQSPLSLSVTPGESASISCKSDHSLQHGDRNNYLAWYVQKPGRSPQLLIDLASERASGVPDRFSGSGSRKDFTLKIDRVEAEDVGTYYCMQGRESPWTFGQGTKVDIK : reported IC50 (µg/ml) with constrains = 0.003

Form: binder = ePGDM9 (antibody, V domains shown) VH: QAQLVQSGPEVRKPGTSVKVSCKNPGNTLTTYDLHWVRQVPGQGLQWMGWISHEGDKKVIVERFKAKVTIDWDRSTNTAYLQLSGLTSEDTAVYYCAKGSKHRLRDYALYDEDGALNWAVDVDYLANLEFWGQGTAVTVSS VL: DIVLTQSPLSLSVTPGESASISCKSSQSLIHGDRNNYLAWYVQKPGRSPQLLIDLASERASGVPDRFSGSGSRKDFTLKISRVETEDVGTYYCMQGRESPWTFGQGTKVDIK ; IC50 (µg/ml) with constrains = 0.002
